B1: Hairpin Ribozyme (parent)
chain: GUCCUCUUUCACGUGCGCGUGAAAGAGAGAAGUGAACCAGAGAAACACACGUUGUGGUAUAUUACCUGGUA

Variants of: B1
assay.method.text: self-cleavage, relative activity (ratio to wild type); higher = more cleavage; co-transcriptional
self-cleavage below 0.3 gives not met; self-cleavage at or above it gives met.

The examples below pair each entry with its known result.
G1U A35U	not met
U9G G42A	not met
G13C A64C	not met
A23U C38A	not met
C12U C50A	met
U14A A23G	met
G51C U67A	not met
U9C U60A	met

Incoming: Kindly determine if self-cleavage recorded for C18U A61G is above or exactly 0.3.
Outgoing: not met

Incoming: hey, is self-cleavage for this one >= 0.3? G17A G34A
Outgoing: met

Incoming: Does the reported self-cleavage for A44C U67A fall at or above the 0.3 mark?
Outgoing: not met

Incoming: Can C6U G15U be said to have self-cleavage at or above 0.3?
Outgoing: met

Incoming: Check the entry G17A U53C : does self-cleavage equal or exceed 0.3?
Outgoing: met

Incoming: Check this variant for self-cleavage at or above 0.3: A11G A71G
Outgoing: met

Incoming: Given A31U A44G , state whether its self-cleavage is at least 0.3.
Outgoing: not met

Incoming: Does self-cleavage meet or surpass 0.3 for U7C A61U ?
Outgoing: not met

Incoming: hey, is self-cleavage for this one >= 0.3? G21C G25A
Outgoing: not met

Incoming: Please tell me: is the variant C38U A43U at or over 0.3 in terms of self-cleavage?
Outgoing: not met

Incoming: Hello, I need to know if G21C A43U has measured self-cleavage not below 0.3. Thanks!
Outgoing: not met

Incoming: Quick check, self-cleavage >= 0.3? A47U A59C
Outgoing: not met

Incoming: Form field: self-cleavage at least 0.3? Entry: C4A C50G
Outgoing: not met

Incoming: Does G15C U58A have a reported self-cleavage of at least 0.3?
Outgoing: met

Incoming: Could you tell me if the measured self-cleavage of A23U G68C reaches 0.3 or more?
Outgoing: not met

Incoming: hey, is self-cleavage for this one >= 0.3? U7C A28C
Outgoing: met

Incoming: Textbook exercise: given the entry U14A A28G , state whether its self-cleavage is greater than or equal to 0.3.
Outgoing: met

Incoming: # bool: self-cleavage of U2A >= 0.3
Outgoing: not met

Incoming: Decide: self-cleavage of A47C U63A >= 0.3?
Outgoing: not met

Incoming: Decide: self-cleavage of C10U A71U >= 0.3?
Outgoing: met
